Tested on: NRG-mice bearing LNCaP tumors
Experiment: Biodistribution (and PET/SPECT imaging) in NRG-mice bearing LNCaP tumors
Assay type: in vivo
Settings: 24 h p.i., Avg
*1 amine or outer side, *2 acyl side, *3 side chain or, on linkers, in order; H or OH if unused. Where a SMILES comes first, the peptide text is derived from it. [ ]: non-standard residue; d: D form. The star is where a group is joined. ξ: configuration not given here. ξLys(Nα-CO-ξAad) = O=C(O)CCCC(NC(=O)NC(CCCCN*)C(=O)O)C(=O)O; Butanoyl(4-(4-NO2Ph)) = O=C(CCCc1ccc([N+](=O)[O-])cc1)*; DOTA = O=C(O)CN1CCN(CC(=O)O)CCN(CC(=O)*)CCN(CC(=O)O)CC1; ξAla(9-anthryl) = NC(Cc1c2ccccc2cc2ccccc12)C(=O)O; X1 = O=C(C1CCC(CN[*:1])CC1)[*:2]; ξK = NCCCCC(N)C(=O)O
Each entry below lists one item and its recorded Biodistribution: Seminal gland value.
Just the number in % ID/g, nothing appended.

Take a look at these entries with their results.
Bench note: what Biodistribution: Seminal gland did O=C([O-])CN1CCN(CC(=O)[O-])CCN(CC(=O)NCCCCC(NC(=O)CNC(=O)CCCc2ccc([N+](=O)[O-])cc2)C(=O)NCC(=O)NCC2CCC(C(=O)NC(Cc3c4ccccc4cc4ccccc34)C(=O)NCCCCC(NC(=O)NC(CCCC(=O)O)C(=O)O)C(=O)O)CC2)CCN(CC(=O)[O-])CC1.[225Ac+3] (stereo not drawn) [^225Ac-CCZ02017] ({Butanoyl(4-(4-NO2Ph))}-G[ξK](DOTA)G[X1][ξAla(9-anthryl)]-{ξLys(Nα-CO-ξAad)}) show? 0.15

Bench note: what Biodistribution: Seminal gland did COc1ccc(CCCC(=O)NCC(=O)NC(CCCCNC(=O)CN2CCN(CC(=O)[O-])CCN(CC(=O)[O-])CCN(CC(=O)[O-])CC2)CC(=O)NCC2CCC(C(=O)NC(Cc3c4ccccc4cc4ccccc34)C(=O)NCCCCC(NC(=O)NC(CC(F)C(=O)O)C(=O)O)C(=O)O)CC2)cc1.[177Lu+3] (stereo not drawn) [^177Lu-CCZ02019] show? 0.23

---
Bench note: what Biodistribution: Seminal gland did O=C([O-])CN1CCN(CC(=O)[O-])CCN(CC(=O)NCCCCC(NC(=O)CNC(=O)CCCc2ccc([N+](=O)[O-])cc2)C(=O)NCC(=O)NCC2CCC(C(=O)NC(Cc3c4ccccc4cc4ccccc34)C(=O)NCCCCC(NC(=O)NC(CCCC(=O)O)C(=O)O)C(=O)O)CC2)CCN(CC(=O)[O-])CC1.[177Lu+3] (stereo not drawn) [^177Lu-CCZ02017] ({Butanoyl(4-(4-NO2Ph))}-G[ξK](DOTA)G[X1][ξAla(9-anthryl)]-{ξLys(Nα-CO-ξAad)}) show? 0.07

====

Each entry below lists one item and its recorded Biodistribution: Brain value.
Tested on: NRG-mice bearing LNCaP tumors
Assay: Biodistribution (and PET/SPECT imaging) in NRG-mice bearing LNCaP tumors
Format: in vivo
Settings: 24 h p.i., Avg
*1 amine or outer side, *2 acyl side, *3 side chain or, on linkers, in order; H or OH if unused. Where a SMILES comes first, the peptide text is derived from it. [ ]: non-standard residue; d: D form. The star is where a group is joined. ξ: configuration not given here. ξLys(Nα-CO-ξAad) = O=C(O)CCCC(NC(=O)NC(CCCCN*)C(=O)O)C(=O)O; Butanoyl(4-(4-NO2Ph)) = O=C(CCCc1ccc([N+](=O)[O-])cc1)*; DOTA = O=C(O)CN1CCN(CC(=O)O)CCN(CC(=O)*)CCN(CC(=O)O)CC1; Butanoyl(4-(4-MeO-phenyl)) = COc1ccc(CCCC(=O)*)cc1; ξAla(9-anthryl) = NC(Cc1c2ccccc2cc2ccccc12)C(=O)O; X2 = O=C(NC(CCCCN*)C(=O)O)NC(CC(F)C(=O)O)C(=O)O; X1 = O=C(C1CCC(CN[*:1])CC1)[*:2]; ξK = NCCCCC(N)C(=O)O
Just the number in % ID/g, nothing appended.

Take a look at these entries with their results.
Bench note: what Biodistribution: Brain did O=C([O-])CN1CCN(CC(=O)[O-])CCN(CC(=O)NCCCCC(NC(=O)CNC(=O)CCCc2ccc([N+](=O)[O-])cc2)C(=O)NCC(=O)NCC2CCC(C(=O)NC(Cc3c4ccccc4cc4ccccc34)C(=O)NCCCCC(NC(=O)NC(CCCC(=O)O)C(=O)O)C(=O)O)CC2)CCN(CC(=O)[O-])CC1.[225Ac+3] (stereo not drawn) [^225Ac-CCZ02017] ({Butanoyl(4-(4-NO2Ph))}-G[ξK](DOTA)G[X1][ξAla(9-anthryl)]-{ξLys(Nα-CO-ξAad)}) show? 0.03

Bench note: what Biodistribution: Brain did COc1ccc(CCCC(=O)NCC(=O)NC(CCCCNC(=O)CN2CCN(CC(=O)[O-])CCN(CC(=O)[O-])CCN(CC(=O)[O-])CC2)CC(=O)NCC2CCC(C(=O)NC(Cc3c4ccccc4cc4ccccc34)C(=O)NCCCCC(NC(=O)NC(CC(F)C(=O)O)C(=O)O)C(=O)O)CC2)cc1.[177Lu+3] (stereo not drawn) [^177Lu-CCZ02019] show? 0.03

// next entry
Bench note: what Biodistribution: Brain did COc1ccc(CCCC(=O)NCC(=O)NC(CCCCNC(=O)CN2CCN(CC(=O)[O-])CCN(CC(=O)[O-])CCN(CC(=O)[O-])CC2)C(=O)NCC(=O)NCC2CCC(C(=O)NC(Cc3c4ccccc4cc4ccccc34)C(=O)NCCCCC(NC(=O)NC(CC(F)C(=O)O)C(=O)O)C(=O)O)CC2)cc1.[177Lu+3] (stereo not drawn) [^177Lu-CCZ02008] ({Butanoyl(4-(4-MeO-phenyl))}-G[ξK](DOTA)G[X1][ξAla(9-anthryl)]-X2) show? 0.09

====

Each entry below lists one item and its recorded Biodistribution: Stomach value.
System: NRG-mice bearing LNCaP tumors
Test: Biodistribution (and PET/SPECT imaging) in NRG-mice bearing LNCaP tumors
Type: in vivo
Conditions: 24 h p.i., Avg
*1 amine or outer side, *2 acyl side, *3 side chain or, on linkers, in order; H or OH if unused. Where a SMILES comes first, the peptide text is derived from it. [ ]: non-standard residue; d: D form. The star is where a group is joined. ξ: configuration not given here. ξLys(Nα-CO-ξAad) = O=C(O)CCCC(NC(=O)NC(CCCCN*)C(=O)O)C(=O)O; Butanoyl(4-(4-NO2Ph)) = O=C(CCCc1ccc([N+](=O)[O-])cc1)*; DOTA = O=C(O)CN1CCN(CC(=O)O)CCN(CC(=O)*)CCN(CC(=O)O)CC1; Butanoyl(4-(4-MeO-phenyl)) = COc1ccc(CCCC(=O)*)cc1; ξAla(9-anthryl) = NC(Cc1c2ccccc2cc2ccccc12)C(=O)O; X2 = O=C(NC(CCCCN*)C(=O)O)NC(CC(F)C(=O)O)C(=O)O; X1 = O=C(C1CCC(CN[*:1])CC1)[*:2]; ξK = NCCCCC(N)C(=O)O
Just the number in % ID/g, nothing appended.

Take a look at these entries with their results.
Bench note: what Biodistribution: Stomach did O=C([O-])CN1CCN(CC(=O)[O-])CCN(CC(=O)NCCCCC(NC(=O)CNC(=O)CCCc2ccc([N+](=O)[O-])cc2)C(=O)NCC(=O)NCC2CCC(C(=O)NC(Cc3c4ccccc4cc4ccccc34)C(=O)NCCCCC(NC(=O)NC(CCCC(=O)O)C(=O)O)C(=O)O)CC2)CCN(CC(=O)[O-])CC1.[177Lu+3] (stereo not shown) [^177Lu-CCZ02017] ({Butanoyl(4-(4-NO2Ph))}-G[ξK](DOTA)G[X1][ξAla(9-anthryl)]-{ξLys(Nα-CO-ξAad)}) show? 0.15

Bench note: what Biodistribution: Stomach did COc1ccc(CCCC(=O)NCC(=O)NC(CCCCNC(=O)CN2CCN(CC(=O)[O-])CCN(CC(=O)[O-])CCN(CC(=O)[O-])CC2)CC(=O)NCC2CCC(C(=O)NC(Cc3c4ccccc4cc4ccccc34)C(=O)NCCCCC(NC(=O)NC(CC(F)C(=O)O)C(=O)O)C(=O)O)CC2)cc1.[177Lu+3] (stereo not shown) [^177Lu-CCZ02019] show? 0.73

Bench note: what Biodistribution: Stomach did COc1ccc(CCCC(=O)NCC(=O)NC(CCCCNC(=O)CN2CCN(CC(=O)[O-])CCN(CC(=O)[O-])CCN(CC(=O)[O-])CC2)C(=O)NCC(=O)NCC2CCC(C(=O)NC(Cc3c4ccccc4cc4ccccc34)C(=O)NCCCCC(NC(=O)NC(CC(F)C(=O)O)C(=O)O)C(=O)O)CC2)cc1.[177Lu+3] (stereo not shown) [^177Lu-CCZ02008] ({Butanoyl(4-(4-MeO-phenyl))}-G[ξK](DOTA)G[X1][ξAla(9-anthryl)]-X2) show? 0.48

// next entry
Bench note: what Biodistribution: Stomach did O=C([O-])CN1CCN(CC(=O)[O-])CCN(CC(=O)NCCCCC(NC(=O)CNC(=O)CCCc2ccc([N+](=O)[O-])cc2)C(=O)NCC(=O)NCC2CCC(C(=O)NC(Cc3c4ccccc4cc4ccccc34)C(=O)NCCCCC(NC(=O)NC(CCCC(=O)O)C(=O)O)C(=O)O)CC2)CCN(CC(=O)[O-])CC1.[225Ac+3] (stereo not shown) [^225Ac-CCZ02017] ({Butanoyl(4-(4-NO2Ph))}-G[ξK](DOTA)G[X1][ξAla(9-anthryl)]-{ξLys(Nα-CO-ξAad)}) show? 0.20
